# experimentNotes: qHTS for inhibitors of Vif-A3G interactions: Cherry picks; note: nearly all actives have a fitted effect of over 80% in size; note: potency is the fitted concentration of half-maximal effect
# measurementContext: HeLa A3G-eYFP + Vif (tagged APOBEC3G with the HIV-1 protein that degrades it), 24 h; eYFP fluorescence increase; series mostly up to 36.9 µM
In all, about 2,100 compounds went through this assay and about 650 (31%) were called active. Not shown: some 16% with an inconclusive outcome. Some of the results follow.
propertyName: Potency

The examples below pair each entry with its known result.
Cc1c(NC(=O)c2csc3c2CCCC3)c(=O)n(-c2ccccc2)n1C; inactive
CCOc1ccc(CN2C(=O)c3ccccc3Sc3ccc(C(=O)O)cc32)cc1; inactive
COCCCNC(=S)N/N=C/c1ccc(OC)cc1; inactive
NNC(=O)c1cc2sccc2s1; inactive
Cn1c(=O)c2cc(NC(=O)NCc3ccccc3)ccc2n1C/C=C/c1ccccc1; inactive
COc1ccc(C2CC(c3ccncc3)=NN2c2ccc(S(N)(=O)=O)cc2)cc1 (stereo not given); 10.3 µM (active)
CCC/C=N/NC(=O)c1[nH]c2c([N+](=O)[O-])cccc2c1C; inactive
CN[C@H]1CCc2cc(OC)c(OC)c(OC)c2-c2ccc(N(C)CC(OC)OC)c(=O)cc21; inactive

Supply Potency value. Item: CCN1/C(=C/c2cccc[n+]2C)Sc2ccc(OC)cc21 16.4 µM (active)

Specify measured Potency for COc1ccc2nc(N3C(=O)/C(=C/c4ccccc4)NC3=S)sc2c1 . 3.66 µM (active)

In one line, give reported Potency of the entry COc1ccc2nc(NC(=O)Nc3ccccc3OC)sc2c1 . inactive
